# assay_comment: Toxicity in human erythrocytes assessed as hemolysis at 150 uM after 1 hr
# Type: cell-based, Erythrocyte
# recorded_conditions: read-out: Activity
Square brackets hold non-standard residues; d marks the D form. Peptide text beside a SMILES is read from it. Bip = N[C@@H](Cc1ccc(-c2ccccc2)cc1)C(=O)O; Dip = N[C@H](C(=O)O)C(c1ccccc1)c1ccccc1; 2Nal = N[C@@H](Cc1ccc2ccccc2c1)C(=O)O; Cha = N[C@@H](CC1CCCCC1)C(=O)O; Aoc = NCCCCCCCC(=O)O; GABA = NCCCC(=O)O
quantity_measured: hemolysis at 1 h, 150 µM (%)
Numbers only, in %.

Solved cases below.
>  <compound>
CC(C)C[C@@H]1NC(=O)CCCNC(=O)[C@H](Cc2ccc3ccccc3c2)NC(=O)[C@H](CCCNC(=N)N)NC(=O)[C@H](CC(C)C)NC(=O)[C@H](Cc2ccc3ccccc3c2)NC(=O)[C@H](CCCNC(=N)N)NC1=O (cyclo([2Nal][GABA]LR[2Nal]LR))

>  <unit_of_measure>
%

>  <experimental_value>
22

$$$$
>  <compound>
CC(C)C[C@@H]1NC(=O)CNC(=O)[C@H](Cc2ccc3ccccc3c2)NC(=O)[C@H](CCCCN)NC(=O)[C@H](CC(C)C)NC(=O)[C@H](Cc2ccc3ccccc3c2)NC(=O)[C@H](CCCNC(=N)N)NC1=O (cyclo([2Nal]GLR[2Nal]LK))

>  <unit_of_measure>
%

>  <experimental_value>
19

$$$$

// each compound listed below needs its hemolysis at 1 h, 150 µM
1. CCCCCCC1NC(=O)[C@@H](Cc2ccc3ccccc3c2)NC(=O)[C@H](CCCNC(=N)N)NC(=O)[C@H](CC(C)C)NC(=O)CNC(=O)[C@H](Cc2ccc3ccccc3c2)NC(=O)[C@H](CCCNC(=N)N)NC1=O (stereo not given in full)
2. CC(C)C[C@@H]1NC(=O)CCCCCCCNC(=O)[C@H](Cc2ccc3ccccc3c2)NC(=O)[C@H](CCCNC(=N)N)NC(=O)[C@H](CC(C)C)NC(=O)[C@H](Cc2ccc3ccccc3c2)NC(=O)[C@H](CCCNC(=N)N)NC1=O (cyclo([2Nal][Aoc]LR[2Nal]LR))
3. CC(C)C[C@@H]1NC(=O)[C@H](Cc2ccc3ccccc3c2)NC(=O)[C@H](CCCNC(=N)N)NC(=O)[C@H](CC2CCCCC2)NC(=O)CNC(=O)[C@H](Cc2ccc3ccccc3c2)NC(=O)[C@H](CCCNC(=N)N)NC1=O (cyclo([2Nal]G[Cha]R[2Nal]LR))
4. CC(C)C[C@@H]1NC(=O)CNC(=O)[C@H](C(c2ccccc2)c2ccccc2)NC(=O)[C@H](CCCNC(=N)N)NC(=O)[C@H](CC(C)C)NC(=O)[C@H](C(c2ccccc2)c2ccccc2)NC(=O)[C@H](CCCNC(=N)N)NC1=O (cyclo([Dip]GLR[Dip]LR))
5. CC(C)C[C@@H]1NC(=O)CNC(=O)[C@H](Cc2ccc(-c3ccccc3)cc2)NC(=O)[C@H](CCCNC(=N)N)NC(=O)[C@H](CC(C)C)NC(=O)[C@H](Cc2ccc(-c3ccccc3)cc2)NC(=O)[C@H](CCCNC(=N)N)NC1=O (cyclo([Bip]GLR[Bip]LR))

Found:
1. 92
2. 100
3. 99
4. 54
5. 96

Attribution: ChEMBL document CHEMBL4000149
